Readings of kon for the listed binders
target: T1, recombinant human IL1RAP ECD (human, UniProt Q9NPH3 21-367)
T1 construct: His-tagged; also called hIL1RAP-ECD; rhuIL1RAP
T1 sequence: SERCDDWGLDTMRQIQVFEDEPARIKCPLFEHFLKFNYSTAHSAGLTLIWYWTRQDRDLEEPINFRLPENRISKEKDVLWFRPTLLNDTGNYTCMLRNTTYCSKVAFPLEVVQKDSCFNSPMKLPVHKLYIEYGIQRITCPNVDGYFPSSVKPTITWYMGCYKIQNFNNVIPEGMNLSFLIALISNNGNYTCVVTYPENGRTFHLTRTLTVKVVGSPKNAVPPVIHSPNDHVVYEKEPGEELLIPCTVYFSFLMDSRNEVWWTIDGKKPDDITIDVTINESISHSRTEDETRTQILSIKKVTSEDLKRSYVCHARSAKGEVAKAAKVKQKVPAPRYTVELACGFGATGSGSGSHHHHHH
protocolDescription: SPR (ProteOn)
Entry rule: numbers only, all in M⁻¹ s⁻¹.

Below, each entry is followed by its recorded kon result.
# binder, kon (M⁻¹ s⁻¹)
rows = [
    ("IAPB23 (antibody, human IgG4 S228P, kappa, F234A L235A, V domains shown, IgG4-PAA; whole chains) VH: EVQLLESGGGLVQPGGSLRLSCAASGFTFSNYWMNWVRQAPGKGLEWVSAIRYDGGSKYYADSVKGRFTISRDNSKNTLYLQMNSLRAEDTAVYYCAKDAYPPYSFDYWGQGTLVTVSS VL: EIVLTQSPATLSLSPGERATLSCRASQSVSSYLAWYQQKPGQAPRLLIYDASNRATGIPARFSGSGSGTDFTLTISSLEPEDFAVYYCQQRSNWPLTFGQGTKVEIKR", 317000),
    ("IAPB55, 22A09 (hybridoma mAb, unpurified) (antibody, V domains shown, OmniRat hybridoma product (rat constant region)) VH: QLQLQESGPGLVKPSETLSLTCTVSGVSISSSTYYWGWLRQPPGMGLEWTGSIYFTGNTYYNPSLKSRVTISVDTSRNQFSLKLSSVTAADTAVYYCGSLFGDYGYFDYWGQGTLVTVSS VL: EIVMTQSPATLSVSPGERATLSCRASQFISSNLAWYQQKPGQAPRLLIYGASTRATGIPARFSGSGSGTDFTLTISSLQSEDFAVYYCQQYNNWPFTFGPGTKVDIK", 454000),
]

Now consider a different binder.
Task: Specify measured kon for IAPB04 (antibody, human IgG4 S228P, kappa, F234A L235A, V domains shown, IgG4-PAA; also called IAPB4; phage hit B4) VH: QVQLVQSGAEVKKPGSSVKVSCKASGGTFSSYAISWVRQAPGQGLEWMGGISAIFGTANYAQKFQGRVTITADESTSTAYMELSSLRSEDTAVYYCARHLHNGIHLDYWGQGTLVTVSS VL: EIVLTQSPATLSLSPGERATLSCRASQSVSNFLAWYQQKPGQAPRLLIYGASNRATGIPARFSGSGSGTDFTLTISSLEPEDFAVYYCQQGKHWPWTFGQGTKVEIKR .
Result: 255000
